Target: cAMP and cAMP-inhibited cGMP 3',5'-cyclic phosphodiesterase 10A (Homo sapiens, UniProt Q9Y233)
Sequence (Q9Y233 whole entry): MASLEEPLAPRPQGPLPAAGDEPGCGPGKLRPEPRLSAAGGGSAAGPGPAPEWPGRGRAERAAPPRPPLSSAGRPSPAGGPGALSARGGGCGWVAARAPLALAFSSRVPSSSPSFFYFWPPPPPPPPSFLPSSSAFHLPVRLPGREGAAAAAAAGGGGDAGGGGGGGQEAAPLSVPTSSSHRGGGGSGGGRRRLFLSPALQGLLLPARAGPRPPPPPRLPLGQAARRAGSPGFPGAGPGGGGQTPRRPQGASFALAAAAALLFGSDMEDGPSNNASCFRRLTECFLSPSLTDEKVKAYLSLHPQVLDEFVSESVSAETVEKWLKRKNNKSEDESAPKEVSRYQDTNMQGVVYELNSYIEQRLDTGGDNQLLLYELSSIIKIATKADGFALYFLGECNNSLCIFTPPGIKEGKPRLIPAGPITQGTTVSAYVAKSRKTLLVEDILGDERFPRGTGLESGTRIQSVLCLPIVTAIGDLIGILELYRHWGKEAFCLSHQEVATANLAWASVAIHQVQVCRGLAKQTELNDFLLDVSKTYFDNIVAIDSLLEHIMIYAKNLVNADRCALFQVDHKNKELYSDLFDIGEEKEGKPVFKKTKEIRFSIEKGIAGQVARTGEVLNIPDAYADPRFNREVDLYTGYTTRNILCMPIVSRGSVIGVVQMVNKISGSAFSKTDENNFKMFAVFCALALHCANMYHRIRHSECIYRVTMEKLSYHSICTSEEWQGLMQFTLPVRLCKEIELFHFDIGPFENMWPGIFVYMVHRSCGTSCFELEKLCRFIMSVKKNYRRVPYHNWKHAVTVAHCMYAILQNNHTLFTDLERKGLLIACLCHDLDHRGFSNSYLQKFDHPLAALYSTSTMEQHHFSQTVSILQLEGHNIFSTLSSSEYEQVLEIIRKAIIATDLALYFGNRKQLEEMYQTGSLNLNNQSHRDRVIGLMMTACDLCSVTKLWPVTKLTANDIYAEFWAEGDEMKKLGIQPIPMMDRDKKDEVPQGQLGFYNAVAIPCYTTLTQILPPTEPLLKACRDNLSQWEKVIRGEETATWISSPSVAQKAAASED
pKi: −log10 of the molar value.
EXPERIMENTAL_ENDPOINT: pKi

// worked examples, pKi included
CN(CCc1ccccn1)c1nc(-c2ccncc2)nc2c1CN(C(=O)c1ccc(Cl)cc1)CC2 = 6.28
Cc1nc2c(c(N(C)CCc3ccccn3)n1)CN(C(=O)Nc1ccccc1)CC2 = 5.36
CC(C)CC(=O)N1CCc2nc(-c3ccncc3)nc(N(C)CCc3ccccn3)c2C1 = 6.06
CC(C)Oc1nc(-c2ccc(Cl)nc2)nc2c1CN(C(=O)N(C)c1cn[nH]c1)CC2 = 9.00
CN(CCc1ccccn1)c1nc(-c2cccc(Br)c2)nc2c1CN(C(=O)Nc1ccccc1)CC2 = 6.00
CC(C)Oc1nc(-c2cccnc2)nc2c1CN(C(=O)Nc1ccccc1)CC2 = 7.77

1. Cc1ccncc1NC(=O)N1CCc2nc(-c3ccc(C(F)(F)F)nc3)nc(OC(C)C)c2C1
2. Cc1ccncc1NC(=O)N1CCc2nc(-c3cccnc3)nc(OC(C)C)c2C1
Prompt: Lowest pKi? choose 1 or 2 Please indicate the selected item by its label.
Response: 1

* * *

Assay: Plasma clearance in rat
Type: ADME, organism-based
EXPERIMENTAL_ENDPOINT: clearance

Prompt: Look up clearance for this compound: "CCc1cccc(NC(=O)N2CCc3nc(-c4cccnc4)nc(OC4CCN(C)CC4)c3C2)c1"
Response: > 100 mL/min/kg

* * *

Test: Clearance in rat
Type: ADME, organism-based
Details: in vivo
EXPERIMENTAL_ENDPOINT: clearance (mL/min/kg)

I. CC(C)Oc1nc(-c2ccc(Cl)nc2)nc2c1CN(C(=O)c1cn(C)cn1)CC2.Cl
II. COCCOc1nc(-c2ccc(Cl)nc2)nc2c1CN(C(=O)c1ncn3ccccc13)CC2
Prompt: Response body: label of entry with the larger clearance; valid values I , II . Please indicate the selected item by its label.
Response: II

* * *

Experiment: Clearance in dog
Assay type: ADME, organism-based, Canis lupus familiaris
Details: in vivo
EXPERIMENTAL_ENDPOINT: clearance (mL/min/kg)

P. COCCOc1nc(-c2ccc(Cl)nc2)nc2c1CN(C(=O)c1ncn3ccccc13)CC2 [THPP-1]
Q. CC(C)Oc1nc(-c2ccc(Cl)nc2)nc2c1CN(C(=O)c1cn(C)cn1)CC2.Cl
Prompt: Lowest clearance? choose P or Q Please indicate the selected item by its label.
Response: Q
(Q: 0.94 mL/min/kg, P: 3.8 mL/min/kg)

* * *

Molecular target: cAMP and cAMP-inhibited cGMP 3',5'-cyclic phosphodiesterase 10A (Homo sapiens, UniProt Q9Y233)
pKi: −log10 of the molar value.
EXPERIMENTAL_ENDPOINT: pKi

// worked examples, pKi included
COCCOc1nc(-c2ccncc2)nc2c1CN(C(=O)Nc1ccccc1)CC2 = 6.87
Cc1ccc(-c2nc3c(c(OC(C)C)n2)CN(C(=O)Nc2cnccc2C)CC3)cn1 = 8.10
CN(CCc1ccccn1)c1nc(-c2cccnc2)nc2c1CN(C(=O)Nc1ccccc1)CC2 = 6.92
CN(C)c1nc2c(c(N(C)CCc3ccccn3)n1)CN(C(=O)Nc1ccccc1)CC2 = 6.29

A. CN(CCc1ccccn1)c1nc(-c2ccncc2)nc2c1CN(C(=O)OC(C)(C)C)CC2
B. CN(CCc1ccccn1)c1nc(-c2ccncc2)nc2c1CN(C(=O)Nc1ccccc1)CC2
Prompt: Response body: label of entry with the larger pKi; valid values A , B . Please indicate the selected item by its label.
Response: B

A. CC(C)Oc1nc(-c2ccncc2)nc2c1CN(C(=O)Nc1ccccc1)CC2
B. Cc1ccncc1NC(=O)N1CCc2nc(-c3ccc(F)nc3)nc(OC(C)C)c2C1
C. CN(CCc1ccccn1)c1nc(-c2ccncc2)nc2c1CN(S(C)(=O)=O)CC2
Prompt: Please list these in order of increasing pKi. Thank you! Your reply should list the labels following the order given in the request.
Response: C, A, B
(C: 6.07, A: 7.01, B: 8.52)

* * *

# UniProt:Q9Y233: Ki values follow
EXPERIMENTAL_ENDPOINT: Ki (nM)

// worked examples, Ki included
Cc1ccncc1NC(=O)N1CCc2nc(-c3ccc(Cl)nc3)nc(OC(C)C)c2C1 = 0.6
COc1ccc(NC(=O)N2CCc3nc(-c4ccncc4)nc(N(C)CCc4ccccn4)c3C2)cc1 = 122
CN(CCc1ccccn1)c1nc(-c2ccncc2)nc2c1CN(C(=O)NC(C)(C)C)CC2 = 223
CN(CCc1ccccn1)c1nc(-c2ccncc2)nc2c1CN(C(=O)Nc1cccc(F)c1)CC2 = 156

1. CN(CCc1ccccn1)c1nc(-c2ccccc2)nc2c1CN(C(=O)Nc1ccccc1)CC2
2. COc1nc(-c2cccnc2)nc2c1CN(C(=O)Nc1ccccc1)CC2
Prompt: Response body: label of entry with the larger Ki; valid values 1 , 2 . Please indicate the selected item by its label.
Response: 1
(1: 500 nM, 2: 93 nM)

1. COc1nc(-c2ccncc2)nc2c1CN(C(=O)Nc1ccccc1)CC2
2. CN(CCc1ccccn1)c1nc(-c2ccccn2)nc2c1CN(C(=O)Nc1ccccc1)CC2
3. CN(CCc1ccccn1)c1nc(-c2ccncc2)nc2c1CN(C(=O)Nc1ccncc1)CC2
Prompt: Please list these in order of increasing Ki. Thank you! Your reply should list the labels following the order given in the request.
Response: 3, 1, 2

* * *

Assay: Clearance in monkey
Assay type: ADME, organism-based, Macaca mulatta
Conditions: rhesus monkey, in vivo
EXPERIMENTAL_ENDPOINT: clearance (mL/min/kg)
# number only, unit mL/min/kg dropped from output

Prompt: Look up clearance for this molecule: "COCCOc1nc(-c2ccc(Cl)nc2)nc2c1CN(C(=O)c1ncn3ccccc13)CC2"
Response: 7.7

* * *

Assay: Plasma concentration in rat at 3 mg/kg, po at 2 hrs
Type: ADME, organism-based
Set-up: dose 3 mg/kg, route oral
EXPERIMENTAL_ENDPOINT: concentration at 2 h (nM)
# number only, unit nM dropped from output

Prompt: Look up concentration at 2 h for this compound: "COCCOc1nc(-c2ccc(Cl)nc2)nc2c1CN(C(=O)c1ncn3ccccc13)CC2"
Response: 730
